- ASSAYED_SYSTEM: human glucagon-like peptide 1 receptor (hGLP-1-R) (human, UniProt P43220 24-463)
- PROCEDURE_DETAILS: cell-based or functional assay
Where no end group is shown, it is not given here. Side-chain parts run from the residue outwards. [ ]: non-standard residue; d: D form. maleimide = maleimide end of mPEG-20 kDa maleimide, which attaches the 20 kDa PEG to the Cys thiol; 1Nal = N[C@@H](Cc1cccc2ccccc12)C(=O)O; Aib = CC(C)(N)C(=O)O
PARAMETER: EC50 (relative), intracellular cAMP in hGLP-1-R-293HEK cells, HTRF (nM)
Numbers only, in nM.

Y[Aib]EGTFTSDYSI[Aib]LDKIAQRAFVQWLIA[Aib]KGKKQEWKHQITQ (not fully specified (C-terminus), Not PEGylated) [Example 2 (Aib2, Aib13, Aib29 GIP analog, 42 residues)]
0.045

# return EC50 (relative), intracellular cAMP in hGLP-1-R-293HEK cells, HTRF for each item in the list
1. Y[Aib]EGTFTSDYSI[Aib]LDKIAQRAFVQWLIA[Aib]KGKKQEWKHQITQC([maleimide-mPEG 20 kDa])C([maleimide-mPEG 20 kDa])-NH2 [Aib2, Aib13, Aib29, Cys43(PEG20K), Cys44(PEG20K)-GIP (Example 3, PEGylated with mPEG-MAL)]
2. Y[Aib]EGTFTSDYSI[Aib]LDKIAQRA[1Nal]VQWLIA[Aib]KGKKQEWKHQITQC([maleimide-mPEG 20 kDa])C([maleimide-mPEG 20 kDa])-NH2 (also called Ex 4) [Aib2, Aib13, Nal22, Aib29, Cys43(PEG20K), Cys44(PEG20K)-GIP (Example 4, PEGylated with mPEG-MAL)]
3. Y[Aib]EGTFTSDYSI[Aib]LDKIAQRA[1Nal]VQWLIA[Aib]KGKKQEWKHQITQC([acetamide-mPEG 20 kDa])C([acetamide-mPEG 20 kDa])-NH2

output:
1: 1.11; 2: 0.844; 3: 0.959

input: What EC50 (relative), intracellular cAMP in hGLP-1-R-293HEK cells, HTRF value was documented for this binder, Y[Aib]EGTFTSDYSI[Aib]LDKIAQRA[1Nal]VQWLIA[Aib]KGKKQEWKHQITQ (not fully specified (C-terminus), Not PEGylated) [Example 1 (Aib2, Aib13, Nal22, Aib29 GIP analog, 42 residues)] ?
output: 0.036
